- assayMethodText: Cytotoxicity against human RD cells incubated for 3 days by neutral red uptake method
- Type: cell-based, Rhabdomyosarcoma cell
- conditionParameters: time 3 day
Reported CC50 at 72 h is given for each of the following compounds.
readoutType: CC50 at 72 h (µM)

>>> measured("COCCNC(=O)c1cc(C2CC2)nc2c1cnn2C(C)C")
178
>>> measured("CC(C)n1ncc2c(C(=O)NCCN)cc(C(C)(C)C)nc21")
24.6
>>> measured("CC(C)n1ncc2c(C(=O)NCCN(C)C)cc(C3CC3)nc21")
200
>>> measured("CC(C)c1cc(C(=O)NCCN)c2cnn(C(C)C)c2n1")
170
